tested on: A/Udorn/72 (H3N2) virus; assay: Plaque assay in MDCK cells: EC50 by reduction of plaque number; type: cell-based, influenza virus; details: MDCK
pEC50: −log10 of the molar value.
// pEC50 lookup, one value per entry

compound: COc1cc(COc2ccc3oc(=O)c(-c4ccc(/C=C5\SC(=S)N(C6CC7CCC6C7)C5=O)s4)c(O)c3c2)cc(OC)c1 (stereo not shown) [Compound 315]
target-system: A/Udorn/72 (H3N2) virus
pEC50: > 7.00
--
compound: COc1cc(OC)cc(-c2cc(CCCCN3CCOCC3)c(/C=C3\SC(=S)N(C4CC5CCC4C5)C3=O)o2)c1 (stereo not shown) [Compound 359]
target-system: A/Udorn/72 (H3N2) virus
pEC50: > 7.00
--
compound: COc1cc(O)cc(-c2cc(CCCN)c(/C=C3\SC(=S)N(C4C5CC6CC(C5)CC4C6)C3=O)o2)c1 (stereo not shown) [Compound 123]
target-system: A/Udorn/72 (H3N2) virus
pEC50: > 7.00
--
compound: O=C1/C(=C/c2ccc(-c3c(O)c4ccc(OC5CCCCC5)cc4oc3=O)o2)SC(=S)N1C1CC2CCC1C2 (stereo not shown) [Compound 323]
target-system: A/Udorn/72 (H3N2) virus
pEC50: > 7.00

###

system: A/Udorn/72 (H3N2) virus; assay: Plaque assay in MDCK cells: EC50 by reduction of plaque number; assay type: cell-based, influenza virus; details: MDCK

compound: COc1cc(O)cc(-c2cc(CCCC(C(=O)O)C(=O)O)c(/C=C3\SC(=S)N(C4C5CC6CC(C5)CC4C6)C3=O)o2)c1 (stereo not drawn) [Compound 136]
target-system: A/Udorn/72 (H3N2) virus
EC50: 100 to 250 nM
//
compound: COc1cc(COc2ccc3oc(=O)c(-c4ccc(/C=C5\SC(=S)N(C6CC7CCC6C7)C5=O)o4)c(O)c3c2)cc(OC)c1 (stereo not drawn) [Compound 326]
target-system: A/Udorn/72 (H3N2) virus
EC50: < 100 nM
//
compound: O=C1/C(=C/c2sc(-c3ccc(Cl)cc3)cc2CCCO)SC(=S)N1C1CC2CCC1C2 (stereo not drawn) [Compound 276]
target-system: A/Udorn/72 (H3N2) virus
EC50: < 100 nM
//
compound: O=C1/C(=C/c2oc(-c3ccc(Cl)cc3)cc2CCCCCO)SC(=S)N1C1C2CC3CC(C2)CC1C3 (stereo not drawn) [Compound 334]
target-system: A/Udorn/72 (H3N2) virus
EC50: < 100 nM
//
compound: O=C1/C(=C/c2ncc(-c3ccccc3)o2)SC(=S)N1C1CCCCCCC1 [Compound 66]
target-system: A/Udorn/72 (H3N2) virus
EC50: < 100 nM
//
compound: COc1cc(-c2ccc(/C=C3\SC(=S)N(C4C5CC6CC(C5)CC4C6)C3=O)o2)cc(OC)c1OC (stereo not drawn) [Compound 1]
target-system: A/Udorn/72 (H3N2) virus
EC50: < 100 nM
//
compound: COc1cc(OC)cc(-c2cc(CCCNC(=O)[C@H](CC(=O)OC(C)(C)C)NC(=O)OC(C)(C)C)c(/C=C3\SC(=S)N(C4CC5CCC4C5)C3=O)o2)c1 (stereo partly drawn) [Compound 158]
target-system: A/Udorn/72 (H3N2) virus
EC50: < 100 nM
//
compound: COc1cc(O)cc(-c2ccc(/C=C3\SC(=S)N(C4CC5CCC4C5)C3=O)o2)c1 (stereo not drawn) [Compound 17]
target-system: A/Udorn/72 (H3N2) virus
EC50: < 100 nM
//
compound: COc1ccc2c(O)c(-c3ccc(/C=C4\SC(=S)N(C5C6CC7CC(C6)CC5C7)C4=O)o3)c(=O)oc2c1 (stereo not drawn) [Compound 74]
target-system: A/Udorn/72 (H3N2) virus
EC50: 100 to 250 nM
//
compound: COc1cccc(-c2cc(CCCCCOC(=O)[C@H](CC(N)=O)NC(=O)OC(C)(C)C)c(/C=C3\SC(=S)N(C4CC5CCC4C5)C3=O)s2)c1 (stereo partly drawn) [Compound 313]
target-system: A/Udorn/72 (H3N2) virus
EC50: < 100 nM
//
compound: COc1cc(OC)cc(-c2cc(CCCNC(=O)[C@H](Cc3ccccc3)NC(=O)OC(C)(C)C)c(/C=C3\SC(=S)N(C4CC5CCC4C5)C3=O)o2)c1 (stereo partly drawn) [Compound 157]
target-system: A/Udorn/72 (H3N2) virus
EC50: < 100 nM
//
compound: COc1ccc2oc(=O)c(-c3ccc(/C=C4\SC(=S)N(C5CC6CCC5C6)C4=O)o3)c(O)c2c1 (stereo not drawn) [Compound 69]
target-system: A/Udorn/72 (H3N2) virus
EC50: 100 to 250 nM
//
compound: O=C1/C(=C/c2oc(-c3ccc(C(F)(F)F)cc3)cc2CCCCCO)SC(=S)N1C1C2CC3CC(C2)CC1C3 (stereo not drawn) [Compound 338]
target-system: A/Udorn/72 (H3N2) virus
EC50: < 100 nM
//
compound: COc1cc(OC)cc(-c2cc(CCCO)c(/C=C3\SC(=S)N(C4C5CC6CC(C5)CC4C6)C3=O)o2)c1 (stereo not drawn) [Compound 95]
target-system: A/Udorn/72 (H3N2) virus
EC50: < 100 nM
//
compound: COc1cc(OC)cc(-c2cc(CCCCOC(=O)[C@]3(O)C[C@@H](O)[C@@H](O)[C@H](O)C3)c(/C=C3\SC(=S)N(C4CC5CCC4C5)C3=O)o2)c1 (stereo partly drawn) [Compound 357]
target-system: A/Udorn/72 (H3N2) virus
EC50: < 100 nM
//
compound: O=C1/C(=C/c2cc3ccccc3o2)SC(=S)N1C1C2CC3CC(C2)CC1C3 (stereo not drawn) [Compound 218]
target-system: A/Udorn/72 (H3N2) virus
EC50: < 100 nM
//
compound: COc1ccc2oc(=O)c(CCC(=O)OCCCc3cc(-c4ccc(Cl)cc4)oc3/C=C3\SC(=S)N(C4CC5CCC4C5)C3=O)c(O)c2c1 (stereo not drawn) [Compound 336]
target-system: A/Udorn/72 (H3N2) virus
EC50: < 100 nM
//
compound: O=C1/C(=C/c2ccco2)SC(=S)N1C1CCCCC1 [Compound 220]
target-system: A/Udorn/72 (H3N2) virus
EC50: 250 to 1000 nM
//
compound: COc1cccc(-c2cc(CCCO)c(/C=C3\SC(=S)N(C4C5CC6CC(C5)CC4C6)C3=O)o2)c1 (stereo not drawn) [Compound 352]
target-system: A/Udorn/72 (H3N2) virus
EC50: < 100 nM
//
compound: COc1cc(OC)cc(-c2cc(/C=C/C(=O)O)c(/C=C3\SC(=S)N(C4CC5CCC4C5)C3=O)o2)c1 (stereo not drawn) [Compound 130]
target-system: A/Udorn/72 (H3N2) virus
EC50: < 100 nM
//
compound: CC(C)(C)OC(=O)N[C@@H](CC(N)=O)C(=O)OCCCCCc1cc(-c2ccc(Cl)cc2)[nH]c1/C=C1\SC(=S)N(C2C3CC4CC(C3)CC2C4)C1=O (stereo partly drawn) [Compound 254]
target-system: A/Udorn/72 (H3N2) virus
EC50: < 100 nM
//
compound: COc1cc(OC)cc(-c2cc(CCCNC(=O)[C@@H](N)Cc3ccccc3)c(/C=C3\SC(=S)N(C4CC5CCC4C5)C3=O)o2)c1 (stereo partly drawn) [Compound 171]
target-system: A/Udorn/72 (H3N2) virus
EC50: < 100 nM
//
compound: O=C1/C(=C/c2oc(-c3ccc(F)cc3)cc2CCCN2CCNCC2)SC(=S)N1C1CC2CCC1C2 (stereo not drawn) [Compound 187]
target-system: A/Udorn/72 (H3N2) virus
EC50: < 100 nM
//
compound: O=C1/C(=C/c2oc(-c3ccc(F)cc3)cc2CCCN2CCOCC2)SC(=S)N1C1CC2CCC1C2 (stereo not drawn) [Compound 180]
target-system: A/Udorn/72 (H3N2) virus
EC50: < 100 nM
//
compound: Cn1c(-c2ccc(Cl)cc2)cc(CCCO)c1/C=C1\SC(=S)N(C2CC3CCC2C3)C1=O (stereo not drawn) [Compound 258]
target-system: A/Udorn/72 (H3N2) virus
EC50: > 1000 nM
//
compound: COc1cc(OC)cc(-c2cc(CCCCO)c(/C=C3\SC(=S)N(C4CC5CCC4C5)C3=O)o2)c1 (stereo not drawn) [Compound 113]
target-system: A/Udorn/72 (H3N2) virus
EC50: < 100 nM
//
compound: O=C1/C(=C/c2sc(-c3ccc(Cl)cc3)cc2CCCCCO)SC(=S)N1C1CC2CCC1C2 (stereo not drawn) [Compound 278]
target-system: A/Udorn/72 (H3N2) virus
EC50: < 100 nM

###

system: A/Udorn/72 (H3N2) virus; experiment: Plaque assay in MDCK cells: EC50 by reduction of plaque number; assay type: cell-based, influenza virus; details: MDCK
# key: entry, value: EC50
reported-endpoint: EC50

compound: COc1cc(O)cc(-c2cc(CCCNC(=N)N)c(/C=C3\SC(=S)N(C4CC5CCC4C5)C3=O)o2)c1 (stereo not shown)
result: < 100 nM

compound: COc1ccc(-c2ccc(/C=C3\SC(=S)N(C4CC5CCC4C5)C3=O)o2)cc1OCC(=O)N[C@@H](Cc1cnc[nH]1)C(=O)O (stereo partly shown)
result: < 100 nM

compound: COc1cccc(-c2cc(CCCCCO)c(/C=C3\SC(=S)N(C4CC5CCC4C5)C3=O)o2)c1 (stereo not shown)
result: < 100 nM

compound: COc1cccc(-c2cc(CCCO)c(/C=C3\SC(=S)N(C4CC5CCC4C5)C3=O)[nH]2)c1 (stereo not shown)
result: < 100 nM

Data origin, for the record: patent US8933075B2
